# Measurement target: Histone deacetylase
# Assay method text: Inhibition of human HDAC in HeLa cell nuclear extracts using KI-104 Fluor de Lys as substrate by fluorescence assay
# Type: protein assay
Readout type: IC50

Challenge: Record lookup: for Histone deacetylase, what IC50 belongs to "CC(=O)N1CCC2(CC1)CC(=O)c1ccc(/C=C/C(=O)NO)cc1O2" ?
Response given: 1040 nM

Challenge: What do you have for "CN1CCC2(CC1)CC(=O)c1cc(/C=C/C(=O)NO)ccc1O2" ?
Response given: 288 nM

Challenge: What do you have for "CCOC(=O)N1CCC2(CC1)Oc1ccc(/C=C/C(=O)NO)cc1C2=O" ?
Response given: 2990 nM

Challenge: What do you have for "O=C(/C=C/c1ccc2c(c1)C(=O)CC1(CCN(C(=O)c3ccccc3)CC1)O2)NO" ?
Response given: 316 nM

Challenge: What do you have for "O=C(/C=C/c1ccc2c(c1)C(=O)C1(CCNCC1)O2)NO" ?
Response given: 221 nM

Challenge: What do you have for "CC(=O)N1CCC2(CC1)CC(=O)c1cc(C(=O)NO)ccc1O2" ?
Response given: > 50000 nM

Challenge: What do you have for "O=C(/C=C/c1ccc2c(c1)OC1(CCN(C(=O)c3ccccc3)CC1)CC2=O)NO" ?
Response given: 366 nM

Challenge: What do you have for "O=C(/C=C/c1ccc2c(c1)C(=O)CC1(CCN(Cc3ccccc3)CC1)O2)NO" ?
Response given: 121 nM

Challenge: What do you have for "CN1CCC2(CC1)Oc1ccc(/C=C/C(=O)NO)cc1C2=O" ?
Response given: 538 nM

Challenge: What do you have for "O=C(/C=C/c1ccc2c(c1)C(=O)CC1(CCNCC1)O2)NO" ?
Response given: 82 nM

---

# System: HCT-116
# Assay method text: Antiproliferative activity against human HCT116 cells after 72 hrs by CellTiter-Glo luminescent cell viability assay
# Assay type: functional, cell-based
# Test conditions: HCT-116, 72 h
Readout type: IC50 (µM)
Give a bare numeral; the unit µM is implied.

Challenge: IC50 for "O=C(/C=C/c1ccc2c(c1)C(=O)C1(CCN(Cc3ccccc3)CC1)O2)NO" ?
Response given: 3.1

Challenge: What do you have for "O=C(/C=C/c1ccc2c(c1)OC1(CCN(Cc3ccccc3)CC1)CC2=O)NO" ?
Response given: 8.41

Challenge: What do you have for "CN1CCC2(CC1)Oc1ccc(/C=C/C(=O)NO)cc1C2=O" ?
Response given: 0.337

Challenge: What do you have for "O=C(/C=C/c1ccc2c(c1)CCC1(CCN(Cc3ccccc3)CC1)O2)NO" ?
Response given: 28.2

---

# Assay method text: Volume of distribution at steady state in CD1 mouse at 5 mg/kg, iv and 15 mg/kg, po
# Format: ADME, organism-based
# Test conditions: in vivo, read-out: Vdss
Readout type: Vd
State the value with its unit after it.

Challenge: Vd for "O=C(/C=C/c1ccc2c(c1)C(=O)CC1(CCN(Cc3ccccc3)CC1)O2)NO" ?
Response given: 8.9 L/kg

---

# Measurement target: Histone deacetylase
# Assay method text: Inhibition of human HDAC in HeLa cell nuclear extracts using KI-104 Fluor de Lys as substrate by fluorescence assay
# Format: protein assay
Give IC50 for every item shown.
Give a bare numeral; the unit µM is implied.

Challenge: IC50 for "CN1CCC2(CC1)CC(=O)c1ccc(/C=C/C(=O)NO)cc1O2" ?
Response given: 5.84

Challenge: What do you have for "O=C(/C=C/c1ccc2c(c1)C(=O)C1(CCN(Cc3ccccc3)CC1)O2)NO" ?
Response given: 0.932

Challenge: What do you have for "O=C(NO)c1ccc2c(c1)C(=O)CC1(CCN(C(=O)c3ccccc3)CC1)O2" ?
Response given: 29

Challenge: What do you have for "CCOC(=O)N1CCC2(CC1)CC(=O)c1ccc(/C=C/C(=O)NO)cc1O2" ?
Response given: 0.408

Challenge: What do you have for "O=C(/C=C/c1ccc2c(c1)CCC1(CCN(Cc3ccccc3)CC1)O2)NO" ?
Response given: 9.02
